System: NCI-H322M lung
experimental details: NCI-60 one-dose screen, 48 h (100 = growth as untreated, 0 = no growth, -100 = all killed)
recorded conditions: 10 µM
Compounds without any hit were thinned out: in the full panel of roughly 83,000, 20% have a hit.
value type: growth (%)
The figure you give is taken to be in %; do not add the unit.

In: Need growth, item COc1ccc(CN2[C@H](C(=O)NCc3ccc(C(=O)NO)cc3)Cc3c([nH]c4ccccc34)[C@H]2C2CC2)cc1
Out: 59.4

In: Param item: CCCCCc1ccc(S(=O)(=O)Nc2cc(-c3csc(N(C)C(C)=O)n3)ccc2N2CCN(C)CC2)cc1
Out: 63.6

In: Param item: CC(C)C(=O)Nc1ccc(C(=O)NC(=S)Nc2ccc(C(=O)O)cc2)cc1
Out: 105

In: Param item: Cc1ccc(CNC(=O)Cc2ccc3c(c2)CN(C2CCC(=O)NC2=O)C3=O)cc1 (centres undefined)
Out: 16.1

In: Param item: CCOC(=O)C1NN(c2ccc(S(N)(=O)=O)cc2)c2nc3nc(-c4cccs4)cc(-c4cccs4)c3c(=O)n21 (centres undefined)
Out: 99.7

In: Param item: O=C(CN1CCN(c2ncnc3c2cnn3-c2ccccc2)CC1)Nc1nncs1
Out: 84.8

In: Param item: Cc1ccc2nc(COc3ccc(C(=O)NNC(=S)NC(=O)c4ccccc4)cc3)[nH]c2c1
Out: 80.7

In: Param item: COc1ccsc1/C=N/NC(=O)c1[nH]c2ccc(Br)cc2c1-c1ccccc1
Out: 34.3

In: Param item: O=C(Nc1ccc(F)c(Cl)c1)c1cc(-c2ccc(F)cc2F)ccc1O
Out: 2.57

* * *

Test system: HCT-116 colon
experimental details: NCI-60 one-dose screen, 48 h (100 = growth as untreated, 0 = no growth, -100 = all killed)
recorded conditions: 10 µM
About 83,000 compounds went through this panel and 20% of them were active in at least one assay; those are over-represented in the sample as a whole.
Provide the reported growth of each item.
The figure you give is taken to be in %; do not add the unit.

In: Need growth, item CN1CCN(c2ccc(Nc3nc(NCCNC(=O)c4ccc(C(F)(F)F)cc4)c4sccc4n3)cc2)CC1
Out: 15.2

In: Param item: O=C(Nc1ccc(F)c(Cl)c1)c1cc(-c2ccc(F)cc2F)ccc1O
Out: 9.19

In: Param item: N#Cc1c(NC(=O)c2ccc(C(F)(F)F)cc2C(F)(F)F)sc2c1CCC(=O)C2
Out: 0.663

In: Param item: COc1ccc(OC)c(-c2cc(-c3c[nH]c4ccccc34)nc(N)c2C#N)c1
Out: -45.8

In: Param item: O=C(CSc1nnc(-c2ccc3nc(-c4ccccc4)[nH]c3c2)o1)Nc1ccc(Cl)cc1
Out: 36.4

In: Param item: Clc1cccc(N/N=C/c2c[nH]c3ccccc23)n1
Out: 23.4

In: Param item: O=C(CNc1nc(-c2ccccc2)cs1)Nc1ccccc1
Out: 3.71

In: Param item: COc1cccc(COc2ccc(/C=C3\Oc4cc(O)ccc4C3=O)cc2)c1
Out: 1.73

In: Param item: C=C1CCC2C3(C)COC(c4c(F)cccc4F)OC3CCC2(C)C1CC(O)C1=CCOC1=O (stereo not given)
Out: -31.2

In: Param item: COc1ccc2c(c1)N=C(C(=O)O)/C2=C/c1sc(Nc2ccc(O)cc2)nc1O
Out: 64.7
